# study.system: Beta-lactamase (Escherichia coli (strain K12)) (UniProt P00811)
# Sequence (P00811 whole entry, looked up): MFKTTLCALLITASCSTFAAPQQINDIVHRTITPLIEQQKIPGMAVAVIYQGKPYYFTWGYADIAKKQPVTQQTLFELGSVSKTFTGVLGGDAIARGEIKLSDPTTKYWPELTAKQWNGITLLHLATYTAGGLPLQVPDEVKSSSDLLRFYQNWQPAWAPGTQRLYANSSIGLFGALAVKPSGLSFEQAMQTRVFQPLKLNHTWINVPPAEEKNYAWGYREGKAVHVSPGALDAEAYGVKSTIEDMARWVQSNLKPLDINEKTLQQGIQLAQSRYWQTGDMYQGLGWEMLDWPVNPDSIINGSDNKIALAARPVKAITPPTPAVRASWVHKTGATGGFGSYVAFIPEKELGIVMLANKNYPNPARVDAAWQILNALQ
# assay.procedure: qHTS Inhibitors of AmpC Beta-Lactamase (assay without detergent); note: nearly all actives have a fitted effect of over 20% in size
# condition.label: AmpC nitrocefin hydrolysis, absorbance 480 nm, 0.0001% Triton; series mostly up to 57.1 µM
Out of some 330,000 compounds screened, about 1,700 (0.52%) were called active. Calls come from the whole dose curve; as a rule, active = well fitted inhibition curve with a large enough effect; inconclusive = small, poorly fitted or top-dose-only effect; inactive = no such curve, though single readings can be large or run the other way. What follows is part of a selection rich in actives, with near analogues and random picks from the rest.
Classes used: 1 (yes) = active, 0 (no) = inactive

| compound | class.label |
| --- | --- |
| Cn1c(O)c(C=Nc2ccc3c(c2)CCC3)c(=O)n(C)c1=O | 0 (no) |
| O=C(NC1CC1)C1=C[C@H](c2c[nH]c3ccccc23)C[C@H](OCc2ccc(CO)cc2)O1 | 0 (no) |
| O=C(CN(c1cccc(Cl)c1)S(=O)(=O)c1ccccc1)NN=C1CCCC1 | 0 (no) |
| CC(C)n1c(=O)c(C=Nc2ccc(Br)cc2)c(O)n(Cc2ccco2)c1=O | 1 (yes) |
| O=C(Cn1nc(Cc2cccnc2)c2ccccc2c1=O)NCC1COc2ccccc2O1 (stereo not given) | 0 (no) |

====

# study.system: Beta-lactamase (Escherichia coli (strain K12)) (UniProt P00811)
# assay.procedure: qHTS Inhibitors of AmpC Beta-Lactamase (assay without detergent); note: nearly all actives have a fitted effect of over 20% in size
# condition.label: AmpC nitrocefin hydrolysis, absorbance 480 nm, 0.0001% Triton; series mostly up to 57.1 µM
About 1,700 (0.52%) of roughly 330,000 compounds were called active. Calls follow the shape of the dose curve; as a rule, active = well fitted inhibition curve with a large enough effect; inconclusive = small, poorly fitted or top-dose-only effect; inactive = no such curve, though single readings can be large or run the other way. The sample holds actives, similar compounds and a random draw of the others, so the mix is not that of the screen.
Classes used: active, inactive

| compound | class.label |
| --- | --- |
| CCO/C=C1\C(=O)N(c2ccc(OCC)cc2)C(=O)c2ccccc21 | inactive |
| CC(C)CN(C(=O)COC(=O)c1ccc(Cl)c(N)c1)c1c(N)n(Cc2ccccc2)c(=O)[nH]c1=O | active |
| Cc1ccc(NC(=O)CCNC(=O)c2ccc([N+](=O)[O-])cc2)cc1S(=O)(=O)N1CCOCC1 | inactive |
| CCOc1ccc(N2C(=O)CN(c3cccc4ccccc34)C2=S)cc1 | active |
| N#CCC(=O)N/N=C/c1cn(Cc2ccc3ccccc3c2)c2ccccc12 | inactive |
| CC1CN(c2nc(-c3ccccc3)nnc2-c2ccccc2)CC(C)O1 (stereo not given) | inactive |
| CC(C)CN(C(=O)COC(=O)c1ccc2ccccc2c1)c1c(N)n(Cc2ccccc2)c(=O)[nH]c1=O | inactive |
| O=C(CSc1nc2ccccc2c(=O)[nH]1)Nc1nc(-c2ccc(Br)cc2)cs1 | inactive |
| C=CCn1c(SCCOc2ccc(OC)cc2)nnc1C(NC(=O)c1ccc(OC)cc1)C(C)C (stereo not given) | inactive |
| CC(=O)NCc1ccc(-c2csc(NC(=O)CCCc3nc4ccccc4c(=O)[nH]3)n2)cc1 | inactive |
| Cc1ccc(S(=O)(=O)N(CC(=O)NCc2ccco2)c2ccccc2C)cc1 | inactive |
| Cc1cc(C)c(-c2csc(NC(=O)CCCc3nc4ccccc4c(=O)[nH]3)n2)c(C)c1 | active |
| COc1ccccc1C(CNC(=O)c1cccc(S(=O)(=O)Nc2ccc(F)cc2)c1)N(C)C (stereo not given) | inactive |
| COc1ccc(NC(=O)C(=O)NCC(c2ccco2)N2CCc3ccccc3C2)cc1 (stereo not given) | active |
| O=c1cc(CO)oc(C(Nc2cccc(C(F)(F)F)c2)c2ccccn2)c1O (stereo not given) | inactive |
| C[C@H](NC(=O)c1ccccc1)C(=O)OCC(=O)c1c[nH]c2ccccc12 | inactive |
| COc1cccc(Cn2cc(/C=N/NC(=O)c3cc(O)cc(O)c3)c3ccccc32)c1 | active |
| O=C1OC(OC(=O)c2ccccc2Br)C(N2CCOCC2)=C1Cl (stereo not given) | active |
| CNC(=S)N/N=C/c1cn(Cc2ccc(C)cc2)c2ccccc12 | inactive |
| O=C(NCC(c1ccco1)N1CCc2ccccc2C1)c1ccccc1Cl (stereo not given) | inactive |

====

# study.system: Beta-lactamase (Escherichia coli (strain K12)) (UniProt P00811)
# assay.procedure: qHTS Inhibitors of AmpC Beta-Lactamase (assay without detergent); note: nearly all actives have a fitted effect of over 20% in size
# condition.label: AmpC nitrocefin hydrolysis, absorbance 480 nm, 0.0001% Triton; series mostly up to 57.1 µM
About 1,700 (0.52%) of roughly 330,000 compounds were called active. The list comes from a sample in which actives are over-represented; it also holds close analogues and randomly drawn compounds.
measure: outcome

| compound | result |
| --- | --- |
| Cc1cc(C)cc(C(=O)NC2C(=O)N3C(C(=O)O)=C(CSc4nnc(C)s4)CSC23)c1 (stereo not given) | inactive |
| Cc1nnc(SCC2=C(C(=O)O)N3C(=O)C(NC(=O)Cn4nc(C)c(Cl)c4C)C3SC2)s1 (stereo not given) | inactive |
| COCCn1c(CN(Cc2ccccc2)Cc2ccccc2)nc2c1c(=O)n(C)c(=O)n2C | inactive |
| Cc1cccc(C)c1NC(=O)CS(=O)CC(=O)N1CCN(c2ccccc2)CC1 (stereo not given) | inactive |
| CC(C)(C)OC(=O)C1=C(CO)CS[C@@H]2[C@H](NC(=O)Cc3ccccc3)C(=O)N12 | inactive |

====

# study.system: Beta-lactamase (Escherichia coli (strain K12)) (UniProt P00811)
# assay.procedure: qHTS Inhibitors of AmpC Beta-Lactamase (assay without detergent); note: nearly all actives have a fitted effect of over 20% in size
# condition.label: AmpC nitrocefin hydrolysis, absorbance 480 nm, 0.0001% Triton; series mostly up to 57.1 µM
The campaign covered roughly 330,000 compounds. About 1,700 (0.52%) were called active. This excerpt belongs to a sample that is enriched for actives.

| sample.smiles | outcome |
| --- | --- |
| O=C(O)c1ccc(/C=C2\SC(=S)N(NC(=O)c3ccc(Br)cc3)C2=O)cc1 | inactive |
| COc1ccccc1NC(=O)COc1ccc(C(=O)OCC(=O)N(C(C)C)C(C)C)cc1OC | inactive |
| COC(=O)CSc1snnc1-c1ccc(Cl)c(Cl)c1 | inactive |
| Cn1cccc1/C=C1\SC(=S)N(NC(=O)c2ccc(Cl)cc2)C1=O | inactive |
| COc1ccc(N(CC(=O)Nc2cccc3ccccc23)S(C)(=O)=O)c(OC)c1 | inactive |

====

# study.system: Beta-lactamase (Escherichia coli (strain K12))
# assay.procedure: qHTS Inhibitors of AmpC Beta-Lactamase (assay without detergent); note: nearly all actives have a fitted effect of over 20% in size
# condition.label: AmpC nitrocefin hydrolysis, absorbance 480 nm, 0.0001% Triton; series mostly up to 57.1 µM
About 1,700 (0.52%) of roughly 330,000 compounds were called active. Calls follow the shape of the dose curve; as a rule, active = well fitted inhibition curve with a large enough effect; inconclusive = small, poorly fitted or top-dose-only effect; inactive = no such curve, though single readings can be large or run the other way. The entries come from a sample that favours actives as a whole.
Classes used: 1 (yes) for active, 0 (no) for inactive

| compound | study.system | class.label |
| --- | --- | --- |
| CCn1c(SCCC(C)C)nnc1-c1c[nH]c2ccccc12 | Beta-lactamase (Escherichia coli (strain K12)) | 0 (no) |
| CC(C)CCN1NC2(CCC(C)CC2)NC1=S (stereo unspecified) | Beta-lactamase (Escherichia coli (strain K12)) | 0 (no) |
| CCOC(=O)N1CCN(C(=O)CSc2nnc(-c3c[nH]c4ccccc34)n2CCOC)CC1 | Beta-lactamase (Escherichia coli (strain K12)) | 0 (no) |
| COc1ccc(-n2c(SCC(=O)NCc3cccs3)nnc2-c2ccoc2C)cc1 | Beta-lactamase (Escherichia coli (strain K12)) | 0 (no) |
| CCOC(=O)/C(=N\Nc1cc(Cl)ccc1Cl)N1CCN(C)CC1 | Beta-lactamase (Escherichia coli (strain K12)) | 0 (no) |
| COc1ccc(-n2c(SCC(=O)NCc3ccco3)nnc2-c2c[nH]c3ccccc23)cc1 | Beta-lactamase (Escherichia coli (strain K12)) | 1 (yes) |

====

# study.system: Beta-lactamase (Escherichia coli (strain K12))
# assay.procedure: qHTS Inhibitors of AmpC Beta-Lactamase (assay without detergent); note: nearly all actives have a fitted effect of over 20% in size
# condition.label: AmpC nitrocefin hydrolysis, absorbance 480 nm, 0.0001% Triton; series mostly up to 57.1 µM
The whole screen tested about 330,000 compounds, of which about 1,700 (0.52%) were called active. Calls follow the shape of the dose curve; as a rule, active = well fitted inhibition curve with a large enough effect; inconclusive = small, poorly fitted or top-dose-only effect; inactive = no such curve, though single readings can be large or run the other way. The list comes from a sample in which actives are over-represented; it also holds close analogues and randomly drawn compounds.
Classes used: T (active), F (inactive)

| molecule | class.label |
| --- | --- |
| COc1cc(NC(=S)NNC(=O)CC(C)C)c(OC)cc1Cl | F |
| CC(C)c1ccc(Nc2nnc(SCC(=O)c3nnc(-c4ccccc4)o3)s2)cc1 | T |
| CN(C)/N=C/c1cc(Cl)cc([N+](=O)[O-])c1O | F |
| Cc1cc(-c2nnc(CCC(=O)NC(c3ccccc3)c3ccccc3)o2)no1 | F |
| CCc1ccc(C(=O)NN=C2CCCCCC2)s1 | F |
| CSc1ccc(CCNC(=O)CS(=O)(=O)Cc2nc(-c3ccccc3F)oc2C)cc1 | F |
| CC(C)CCN1C(=O)c2ccc(C(=O)Nc3cccc(S(N)(=O)=O)c3)cc2C1=O | F |
| COC(=O)c1cc(C(=O)OC)cc(N2C(=O)CC(N3CCN(c4ccccc4)CC3)C2=O)c1 (configuration not stated) | F |
| CC(NC(=S)Nc1ccccc1)C(c1cccs1)N1CCOCC1 (configuration not stated) | F |
| Cc1ccccc1SCC(=O)OCC(=O)N1CC(=O)Nc2ccccc21 | F |
| Cc1cccc(N2C(=O)CC(SC(N)=Nc3ccccc3)C2=O)c1 (configuration not stated) | F |
| O=[N+]([O-])c1cc(Cl)cc(/C=N/NC(=S)Nc2cc(S(=O)(=O)N3CCOCC3)ccc2Cl)c1O | F |
| Cc1ccc(-c2csc3nnc(SCC(=O)NCc4ccco4)n23)cc1 | T |
| CCN(CC)C(=O)C1CCC(C)(C(=O)O)C1(C)C (configuration not stated) | F |
| CC(=O)c1ccccc1NC(=O)CC1(CC(=O)O)CCCCC1 | F |
| C=CCNC(=O)COc1coc(CN2CCN(Cc3ccccc3)CC2)cc1=O | F |
| COc1ccc(C(C#N)Nc2ccccc2C)cc1 (configuration not stated) | F |
| Cn1c(-c2ccc(F)cc2)cnc1SCC(=O)NCc1ccco1 | F |
| O=C(CSc1nnc2scc(-c3ccc(F)cc3)n12)NCc1ccco1 | F |
| Cc1ccc(NC(=O)CCCNC(=O)c2ccc(Cl)cc2)cc1S(=O)(=O)N1CCCCC1 | F |
| COC(=O)c1ccccc1SC1CC(=O)N(c2cccc(C)c2)C1=O (configuration not stated) | T |
| O=C(CN1C(=O)NC2(CCCCC2)C1=O)NCCC1=CCCCC1 | F |
